target: GRASP, Q7Z6J2; test: holdup assay; set-up: key: below the threshold = too weak to quantify, mostly under pKd 3.1 to 4; details: plain residues with an end cap or a label only (N-terminal biotin on a linker: ttds)
Sequence (Q7Z6J2 96-193): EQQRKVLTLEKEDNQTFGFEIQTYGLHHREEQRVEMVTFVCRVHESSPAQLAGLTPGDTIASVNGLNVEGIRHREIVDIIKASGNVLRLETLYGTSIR
experimental.readout: pKd

// solved cases for pKd follow
In [3]: df
Out[3]:
                         binder             measured
0   FHPLGADSQV [SLC2A1, P11166]  below the threshold
1  EVVHTPETSV [SLC16A3, O15427]  below the threshold
2   KKYVDAETSL [SLC4A7, Q9Y6M7]                 3.73
3    RPLPRKVSQL [DOCK4, Q8N1I0]                 3.93

Consider the additional binder presented here.
Ask: Please give measured pKd of the following entry: NDPAWDETNL [ARHGEF7, Q14155;Q14155-1]
Reply: below the threshold

Data origin: paper PMC9482650
